- assay-procedure: yeast display, Sf9 membrane polyspecificity reagent, FACS + sequencing; frameworks hold sequencing errors

- residue-string: "QVQLVESGGGLVQAGGSLRLSCAASGFTFKGYTMGWYRQAPGKERELVAAISRSGGRTYYADSVKGRFTISRDNAKNTVYLQMNSLKPEDTAVYYCAAVIIGGHDYWGQGTQVTVSS"
  polyreactivity (PSR sort gate): "high polyreactivity"
- residue-string: "QVQLVESGGGLVQAGGSLRLSCAASGRTFYSNAMGWYRQAPGKERELVATITRRGGSTYYADSVKGRFTISRDNAKNTVYLQMNSLKPEDTAVYYCNAVSSKGNPYYYWGQGTQVTVSS"
  polyreactivity (PSR sort gate): "high polyreactivity"

###

- assay-procedure: yeast display, Sf9 membrane polyspecificity reagent, FACS + sequencing; frameworks hold sequencing errors

- residue-string: "QVQLVESGGGLVQAGGSLRLSCAASGLTLGSYALGWYRQAPGKERELVAAISRRSGRTYYADSVKGRFTISRDNAKNTVYLQMNSLKPEDTAVYYCNRGYTAQVYTEFDYWGQGTQVTVSS"
  polyreactivity (PSR sort gate): "low polyreactivity"
- residue-string: "QVQLVESGGGLVQAGGSLRLSCAASGRIFTNYAMGWYRQAPGKERELVATINGGGITNYADSVKVRFTISRDNAKNTVYLQMNSLKPEDNAVYYCATDRLSYGYKPGYTFYYWEQGTQVTVSS"
  polyreactivity (PSR sort gate): "high polyreactivity"
- residue-string: "QGQLVESGGGLVQAGGNLRLSCAASGSIFSDYTMGWYRQAPGKERELVAVITLSAGSTYYADSVKGRFTISRDNAKNTVYLQMNSLKPEDTAVYYCAADGWYYFGSGVFEYDYWGHGTQVTVSS"
  polyreactivity (PSR sort gate): "low polyreactivity"
- residue-string: "QVQLVESGGGLVQAGGSLRLSCAASGLTFRRYAMGWYRQAPGKERELVAGISRGGSTYYADSVKGRFTISRDNAKNTVYLQMNRLKPEDTAVYYCAAYNSGTYPVQPVPYDMDYWGQGTQVTVSS"
  polyreactivity (PSR sort gate): "low polyreactivity"
- residue-string: "QVQLVESGGGLVQAGGSLRLSCAASGITSSYAMGWYRQAPGKERELVAAISRGGSTYYADSVKGRFTISRDNAKNTVYLLLNSLKPEDTAVYYCNKRRYPYGWGQGTLVTVSS"
  polyreactivity (PSR sort gate): "high polyreactivity"
- residue-string: "QVQLVESGGGLVQAGGSLRLSSAASGFTSSRNAMGWYRQAPGKERELVATISSGGDTYYADSVKGRFTISRDNAKNTVYLQMNSLKPEDTAVYYCATDRAERTGYTRYVKTYNYWGQGTQVTVSS"
  polyreactivity (PSR sort gate): "low polyreactivity"
- residue-string: "QVQLVESGGGLVQAGGSLRLSCAASGRIFSRYGMGWYRQAPGKERELVAGISSSGGSTYYADSVKGRFTISRDNAKNTVYLQMNSLKPEDTAVYYCAADDGFYGPDLDYRGQGTQVTVSS"
  polyreactivity (PSR sort gate): "low polyreactivity"
- residue-string: "QVQLVESGGGLVQAGGSLRLSCAASGSIFYYNTMGWYRQAPGKEREFVADISVIGGSTYYADSVKGRFTISRDNAKNTVYLQMNSLKPEDTAVYYCAARRYLRPHGLYGYWGQGSQVTVSS"
  polyreactivity (PSR sort gate): "low polyreactivity"
- residue-string: "QVQLVESGGGLVQAGGSLRLSCAASGSIIVYYAMGWYRQAPGKQRELVAANDQSGGSTYYADSVKGRFTISRDNAKNTVYLQMNSLKPEDTAVYYCASVHSLYWLGDDTYGYDYWGQGTQVTVSS"
  polyreactivity (PSR sort gate): "low polyreactivity"
- residue-string: "QVQLVESGGCLVQAGGSLRLSCAASGRTFFNYGMGWYRQAPGKEREFVARISFSGGSTYYADSVKGRFTISRDNAKNTVFLQMNSLIPEDTAVYYCNARVFPVAYRYGYWGQGTQVTVSS"
  polyreactivity (PSR sort gate): "high polyreactivity"
- residue-string: "QVQLVESGGGLVQAGGSLRLSCAASGFTFTRNAMGWYRQAPGKERFVAAITGSGASTYYADSVKGRFTISRDNAKNTVYLQMNSLKPEDTAVYYCNAEYYAGRYRYDYWGQGTQVTVSS"
  polyreactivity (PSR sort gate): "high polyreactivity"
- residue-string: "QVHLVESGGGLVQAGGSLRLSCAASGRIFRTYAMGWYRPAPGKERELVAAISGSGGRTYYADSVKGRFTISRDNAKNTVYLQMNSLIPEDTAVSYCAKYVSIVRYGSTTNYDYWGQGTQVTVSS"
  polyreactivity (PSR sort gate): "high polyreactivity"
- residue-string: "QVQLVESGGGLVQAGGSLRLSCAASGRIFDSNAMGWYRQAPGKERELVAYITSGGRTYYADSVKGRFTISRDNAKNTVYLQMNSLKAEDTAVYYCAVRSYKRGPLDYWGQGTQVTVSS"
  polyreactivity (PSR sort gate): "high polyreactivity"
- residue-string: "QVQLVESGGGLVQAGGSLRLSCAASGFTFRYYAMGWYRQAPGKERELVATITSGGRTYYADSVKGRFTISRDNAKNTVYLQMNSLKPEDTAVYYCAADVWYVRTKYGYDYWGQGTQVTVSS"
  polyreactivity (PSR sort gate): "high polyreactivity"
- residue-string: "QVQLEESGGGLVQAGGSLRLSCAASGSTFGWYAMGWYRQAPGKERELVASITSGGRTNYADSVKGRFTISRDNAKNTVYLQMNCLKPEDTAVYYCAKRVYGSNSLYDYWGQGTQVTVTS"
  polyreactivity (PSR sort gate): "low polyreactivity"
- residue-string: "QVQLVESGGGLVQAGGSLRLSCAASGRIFTQYAMGWYRQAPGKERELVAAISYGGGTTHYADSVKGRFTISRDNAKNTVYLQMNSLKPEDTAVYYCAADGGRQVYTQLYDYWGQGTQVTVSS"
  polyreactivity (PSR sort gate): "low polyreactivity"
- residue-string: "QVQLVESGGGLVQAGGSLRLSCAASGFTFLAYAMVWYRQAPGKERELVAAIRWSGGRTYYADSVKGRFTISRDNAKNTVYLQMNSLKPEDTAVYYCAADTRRVREYNYWGQGTQVTVSS"
  polyreactivity (PSR sort gate): "low polyreactivity"
- residue-string: "QEHLVESGGGLDQAGGRLRLSCAASGSIFAAYAMGWYRHAPGKERELVAAIKWTDGSTYYADSVKGRFTISRDIAMNTVYLQMNSLKPEDTAVYYCIRRQYGRKKQYDYWVQGTQVTVSS"
  polyreactivity (PSR sort gate): "high polyreactivity"
- residue-string: "QVQLVESGGGLVQAGGSLRLSCAASGFIFLRYGMGWYRQAPGKARELVATISWSGDSTYADSVKGRFTISRDNAKNTLYLQMNSLKPEDTAVYYCATSGDWWGFRYDYWGQGTQVTVSS"
  polyreactivity (PSR sort gate): "low polyreactivity"
- residue-string: "QVQLVESGGGLVQAGGSLRLSCAASGRTFNEYAMGWYRQAPGKERELVAAISSSGDSTYYADSVKGRFTISRDNAKNTVYLQMNSLKPEDTAVYYCAAQVVVWYPYVYFPGYDYWGQGTQVTVSS"
  polyreactivity (PSR sort gate): "low polyreactivity"
- residue-string: "QVQLVESGGGLVQAGGSLRLSCAASGRTFTWYAMGWYRQAPGKERELVAAISKSGGSTYYADSVKGRFTISRDNAKNTVYLQMNSLKPEDTAVYYCNADFYGYFLGYGYWGQGTQVTVSS"
  polyreactivity (PSR sort gate): "low polyreactivity"

###

- assay-procedure: yeast display, Sf9 membrane polyspecificity reagent, FACS + sequencing; frameworks hold sequencing errors
measured-quantity: polyreactivity (PSR sort gate)

- residue-string: "QVQLVESGGGLVQAGGSLRLSCAASGSILYGNAMGWYRQAPGKERELVAAITTSGGRTYYADSVKGRFTISRDNAKNTVYLQLTSLKPEDTAVYYCAAASPTPVNWSGRDYYYWGQGTQVTVSS"
  result: "high polyreactivity"
- residue-string: "QVQLVESGGGLVQAGGSLRLSCAASGLTFSRYAMGWYRQAPGKERELVAAITWSGSSTYYADSVKGRFTISRDNAKNTVYLQMNILKQEDTAVYYCAARYGYSRGPYYRSDYWGQGTQVTVSS"
  result: "high polyreactivity"

###

- assay-procedure: yeast display, Sf9 membrane polyspecificity reagent, FACS + sequencing; frameworks hold sequencing errors
measured-quantity: polyreactivity (PSR sort gate)

- residue-string: "QVQLVESGGGLVQAGGSLRLSCAASGRILWTYAMGWYRQAPGKERELVADISRTGSTNYADSVKGRFTISRDNAKNTVYLQMNSLKPEDTAVYYCNADYDRSRVYYSVELYDYWGQGTQVTVSS"
  result: "low polyreactivity"
- residue-string: "QVQLVESCGGLVQAGGSLRLSCAASGSIFYGNVMGWYRQAPGKERELVAAISSSGGSTYYADSVKGRFTISRDNEKNTVYLQMNRLKPEDSAVYYCAAYWWSRVVRGSRYDYWGQGTHVTVSS"
  result: "low polyreactivity"
- residue-string: "QVQLQESGGGLVQAGGILRLSCAASGSIFHLHIMCWYRQEPGKERESVAAISNGTSTYYADSVKGRFTICRDNAKNTVYLQMNSPKPDDTAVYYCAALFLVSKHHHYWGEGTQVTVSS"
  result: "low polyreactivity"
